target: T1, V domain of human CD33 (human, UniProt P20138 18-139, limits assumed); assay: SPR, Fab captured, 37C;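 further: Anti-CD33 Fabs captured on anti-Fab chip, soluble monomeric CD33 or its domains flowed over at several concentrations, double-referenced data fitted 1:1, Kd taken as koff/kon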
T1 construct: recombinant, fully glycosylated V domain; also called Human CD33 V domain
METRIC: koff (s⁻¹)
Give bare numbers, in s⁻¹.

binder="ADI-11807 Fab (Fab, V domains shown, Fab fragment; also called Ab5; I07) VH: EVQLVESGGGLVQPGGSLRLSCAASGFTFGSYWMSWVRQAPGKGLEWVATIKQDGSEKSYVDSVKGRFTISRDNAKNSLYLQMNSLRAEDTAVYYCARPLNAGELDVWGQGTMVTVSS VL: DIQMTQSPSTLSASVGDRVTITCRASQSISSWLAWYQQKPGKAPKLLIYEASSLESGVPSRFSGSGSGTEFTLTISSLQPDDFATYYCQQSQSYPPITFGGGTKVEIK" uom=s⁻¹ number=0.000847

Look up koff of ADI-11826 Fab (Fab, V domains shown, Fab fragment; also called Ab26) VH: EVQLVESGGGLVQPGGSLRLSCAASGFTFPGYWMSWVRQAPGKGLEWVANINQDGSEVYYVDSVKGRFTISRDNAKNSLYLQMNSLRAEDTAVYYCAREANYYGNVGDDYWGQGTLVTVSS VL: DIQMTQSPSSLSASVGDRVTITCRASQSIYNYLNWYQQKPGKAPKLLIYAASSTQSGVPSRFSGSGSGTDFTLTISSLQPEDFATYYCQQAFHVPITFGGGTKVEIK and report it.
0.0225
